biological target: human α7 nAChR stably expressed in a HEK cell line (with human RIC-3) (Homo sapiens); construct: PrecisION hnAChR α7/RIC-3; experiment: Automated patch-clamp electrophysiology functional assay (Assay A), IonFlux HT, whole-cell population patch; format: cell-based; conditions: automated patch-clamp electrophysiology functional assay (Assay A); potency class by EC50; read-out: α7 nAChR Potency
Sequence (P36544 23-502): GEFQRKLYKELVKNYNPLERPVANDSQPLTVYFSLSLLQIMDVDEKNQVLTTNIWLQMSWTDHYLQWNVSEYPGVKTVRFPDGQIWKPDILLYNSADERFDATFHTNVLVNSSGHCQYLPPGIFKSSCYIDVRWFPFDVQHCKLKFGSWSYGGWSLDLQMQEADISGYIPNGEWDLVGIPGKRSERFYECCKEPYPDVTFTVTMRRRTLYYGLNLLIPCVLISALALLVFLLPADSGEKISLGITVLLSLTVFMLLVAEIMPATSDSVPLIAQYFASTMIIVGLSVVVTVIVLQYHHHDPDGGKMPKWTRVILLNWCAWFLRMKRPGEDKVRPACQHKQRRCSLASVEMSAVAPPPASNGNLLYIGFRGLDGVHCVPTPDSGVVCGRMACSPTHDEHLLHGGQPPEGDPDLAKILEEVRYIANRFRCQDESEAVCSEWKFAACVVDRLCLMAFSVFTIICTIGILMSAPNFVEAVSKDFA
pEC50: −log10 of the molar value.
observation-type: pEC50

In the examples that follow, each entry is paired with its recorded pEC50.
NS(=O)(=O)c1ccc([C@@H]2C[C@H]2c2nc(-c3ccccc3)no2)cc1    6.30 to 7.00
NS(=O)(=O)c1ccc([C@@H]2[C@@H](c3nc(-c4ccccc4)no3)C2(F)F)cc1    5.30 to 6.30
NS(=O)(=O)c1ccc([C@@H]2C[C@H]2c2nc(CC3CC3)no2)cc1    5.30 to 6.30
CC1(C)[C@@H](c2ccc(S(N)(=O)=O)cc2)[C@@H]1c1noc(-c2c(F)ccc(F)c2F)n1    ≥ 7.00
NS(=O)(=O)c1ccc([C@@H]2C[C@H]2c2nc(-c3cncc(F)c3)no2)cc1    5.30 to 6.30
Cc1ncccc1-c1noc([C@@H]2C[C@H]2c2ccc(S(N)(=O)=O)cc2)n1    5.30 to 6.30
NS(=O)(=O)c1ccc([C@H]2C[C@@H]2c2nc(-c3ccc(F)cc3F)no2)cc1    4.30 to 5.30

Then there is this compound:
The compound CC1(C)[C@H](c2ccc(S(N)(=O)=O)cc2)[C@H]1c1noc(C2CCCCC2)n1 showed pEC50 equal to 5.30 to 6.30
